- Tested on: SARS-CoV-2 spike RNA
- ASSAY_COMMENT: microbe, parasite or virus in culture
- Format: cell-based
- EXPERIMENTAL_CONDITIONS: Severe acute respiratory syndrome coronavirus 2, Vero C1008; Vero E6; read-out: IC50 of SARS-CoV-2 spike intracellular mRNA levels
MEASURE_NAME: pIC50
Give bare numbers, as −log10 of the molar value.

So for O=C(CC1NCCCC1O)Cn1cnc2cc(Br)c(Cl)cc2c1=O (racemic) , the logged pIC50 turned out to be 7.46

###

- ASSAY_COMMENT: clinical
- EXPERIMENTAL_CONDITIONS: human, in vivo, po, 0.5 mg
MEASURE_NAME: Cmax

So for O=C(CC1NCCCC1O)Cn1cnc2cc(Br)c(Cl)cc2c1=O (racemic) , the logged Cmax turned out to be ~1.3 nM

// data source = patent US20230321101A1
